The binders listed here are annotated with their Signal-to-Background (Ratio of Relative Luminescence Units).
target: T1, Epidermal growth factor receptor 2 (HER2 or ErbB-2) on HER2+ SKOV3 cells (human, UniProt P04626 23-1255); assay: split-luciferase complementation on HER2+ SKOV3 cells (lysates, washed); paired with PertH-β9
T1 construct: whole, on cells; Only claim 72 calls it 'human epidermal growth factor receptor 2 (HER2)'
# output: bare number, implied unit ratio

BINDER	UNIT DESCRIPTOR	VAL
β10*-9.29 (designed binder, DARPin fusion expressed in E. coli, used as lysate; also called DARPin 9.29 with N-terminal β10*) MVSGWRLFKKISGGGSGHHHHHHHHGGGSGGSDLGKKLLEAARAGQDDEVRILMANGADVNAHDFYGITPLHLAANFGHLEIVEVLLKHGADVNAFDYDNTPLHLAADAGHLEIVEVLLKYGADVNASDRDGHTPLHLAAREGHLEIVEVLLKNGADVNAQDKFGKTPFDLAIDNGNEDIAEVLQKAA	ratio	31
β10*-L73J (Fab, V domains shown, Fab fusion expressed in E. coli, used as lysate; also called 73J Fab with β10* at the N-terminus of the light chain) VH: EVQLVESGGGLVQPGGSLRLSCAASGFNLYSSYIHWVRQAPGKGLEWVASIYPYSSYTSYADSVKGRFTISADTSKNTAYLQMNSLRAEDTAVYYCARYYGFAMDYWGQGTLVTVSS VL: DIQMTQSPSSLSASVGDRVTITCRASQSVSSAVAWYQQKPGKAPKLLIYSASSLYSGVPSRFSGSRSGTDFTLTISSLQPEDFATYYCQQGYYYPFTFGQGTKVEIKR	ratio	12
β10*-G3 (designed binder, DARPin fusion expressed in E. coli, used as lysate; also called DARPin G3 with N-terminal β10*) MVSGWRLFKKISGGGSGHHHHHHHHGGGSGDLGKKLLEAARAGQDDEVRILMANGADVNAKDEYGLTPLYLATAHGHLEIVEVLLKNGADVNAVDAIGFTPLHLAAFIGHLEIAEVLLKHGADVNAQDKFGKTAFDISIGNGNEDLAEILQKLN	ratio	21

Query: Specify measured Signal-to-Background (Ratio of Relative Luminescence Units) for 73JH-β10* (Fab, V domains shown, Fab fusion expressed in E. coli, used as lysate; also called 73J Fab with β10* at the C-terminus of the heavy chain) VH: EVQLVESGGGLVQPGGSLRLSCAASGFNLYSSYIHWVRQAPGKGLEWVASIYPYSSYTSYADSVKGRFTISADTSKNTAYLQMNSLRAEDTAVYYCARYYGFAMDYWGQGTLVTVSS VL: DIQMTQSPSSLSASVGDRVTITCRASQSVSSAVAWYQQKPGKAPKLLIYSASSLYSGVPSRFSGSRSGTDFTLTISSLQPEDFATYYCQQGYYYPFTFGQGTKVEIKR .
Response: 60
